experiment: Pharmacokinetic test on male SD rats; format: in vivo; conditions: rat, po, gavage (p.o.), 10 mg/kg, plasma
measured_endpoint: Cmax (ng/mL)

CCc1cc(Nc2ncc(Cl)c(Nc3ccccc3C(=O)NC)n2)c(OC)cc1N1CCN(C(=O)CN2CCC(c3ccc(NC4CCC(=O)NC4=O)cc3C(F)(F)F)CC2)CC1 (stereo not drawn)
1120
CCc1cc(Nc2ncc(Cl)c(Nc3ccccc3C(=O)NC)n2)c(OC)cc1N1CCN(C(=O)CN2CCN(c3ccc(NC4CCC(=O)NC4=O)cc3F)CC2)CC1 (stereo not drawn)
1010
CCc1cc(Nc2ncc(Cl)c(Nc3ccccc3C(=O)NC)n2)c(OC)cc1N1CCN(C(=O)CN2CCC(c3ccc4c(N5CCC(=O)NC5=O)nn(C)c4c3)C(F)(F)C2)CC1 (stereo not drawn)
899
